Reference for the values: paper PMC8351079

experiment: Cytotoxicity testing, MTT cell proliferation assay; type: cell-based; settings: African green monkey, Vero E6 cells; 48 h; concentration not given; read-out: % Cell viability against Vero E6 cells
assay.readout: viability at 48 h (%)

1. CCC(CC)COC(=O)[C@H](C)N[P@](=O)(OC[C@H]1O[C@@](C#N)(c2ccc3c(N)ncnn23)[C@H](O)[C@@H]1O)Oc1ccccc1    94.4

----------
assay: Pharmacokinetic analysis in rats (AND in plasma by HPLC); details: male, Sprague Dawley, in vivo, iv; rat, i.v., 10 mg/kg; read-out: CLTotal (converted)
assay.readout: clearance

1. C=C1CC[C@@H]2[C@](C)(CO)[C@H](O)CC[C@@]2(C)[C@@H]1C/C=C1/C(=O)OC[C@H]1O [AND, Andrographolide]    0.183 mL/min

----------
assay: Pharmacokinetic analysis in rats (AND in plasma by HPLC); details: male, Sprague Dawley, in vivo, iv; rat, 10 mg/kg
assay.readout: AUC(0-inf) (µg·h/mL)

1. C=C1CC[C@@H]2[C@](C)(CO)[C@H](O)CC[C@@]2(C)[C@@H]1C/C=C1/C(=O)OC[C@H]1O [AND, Andrographolide]    891

----------
experiment: Pharmacokinetic analysis in rats (AND in plasma by HPLC); design: species or system male Sprague Dawley rats; conditions: male, Sprague Dawley, in vivo; rat, oral, 100 mg/kg (AND equivalent)
assay.readout: AUC(0-inf) (µg·h/mL)

1) C=C1CC[C@@H]2[C@](C)(CO)[C@H](O)CC[C@@]2(C)[C@@H]1C/C=C1/C(=O)OC[C@H]1O [AND, Andrographolide]    1850

----------
test: Cytotoxicity testing, MTT cell proliferation assay; type: cell-based; conditions: African green monkey, Vero E6 cells; 24 h; concentration not given; read-out: % Cell viability against Vero E6 cells
assay.readout: viability at 24 h (%)

1. CCC(CC)COC(=O)[C@H](C)N[P@](=O)(OC[C@H]1O[C@@](C#N)(c2ccc3c(N)ncnn23)[C@H](O)[C@@H]1O)Oc1ccccc1    99.2

----------
experiment: Pharmacokinetic analysis in rats (AND in plasma by HPLC); set-up: species or system male Sprague Dawley rats; details: male, Sprague Dawley, in vivo; rat, oral, 100 mg/kg (AND equivalent)
assay.readout: AUC(0-t) (µg·h/mL)

1. C=C1CC[C@@H]2[C@](C)(CO)[C@H](O)CC[C@@]2(C)[C@@H]1C/C=C1/C(=O)OC[C@H]1O [AND, Andrographolide]    1220

----------
assay: Pharmacokinetic analysis in rats (AND in plasma by HPLC); details: male, Sprague Dawley, in vivo, iv; rat, 10 mg/kg
assay.readout: MRT (h)

1) C=C1CC[C@@H]2[C@](C)(CO)[C@H](O)CC[C@@]2(C)[C@@H]1C/C=C1/C(=O)OC[C@H]1O [AND, Andrographolide]    1.11
